Tested on: COR-L23
TEST NAME: relative viability (nuclei count vs DMSO), 5 days (fraction); higher = more cells survive
CONDITION INFO: first compound 0.2 µM
Note to self: relative viability under 0.4 means 1, ties and anything higher get -1.

COMPOUND: Cc1csc(=NC2CCCCC2)n1/N=C/c1ccc(O)c(O)c1O [MIM1] + COc1cccc2cc(-c3nc([C@H]4CC[C@H](C(=O)O)CC4)n4ncnc(N)c34)[nH]c12 [OSI-027] (partner 0.5 µM)
LABEL: -1
--
COMPOUND: CCNC(=O)c1noc(-c2cc(C(C)C)c(O)cc2O)c1-c1ccc(CN2CCOCC2)cc1 [Luminespib] + Cc1cc(Nc2cc(N3CCN(C)CC3)nc(Sc3ccc(NC(=O)C4CC4)cc3)n2)n[nH]1 [Tozasertib] (partner 0.1 µM)
LABEL: 1
--
COMPOUND: Cc1csc(=NC2CCCCC2)n1/N=C/c1ccc(O)c(O)c1O [MIM1] + O=C(CCCCCCC(=O)Nc1ccccc1)NO [Vorinostat] (partner 1 µM)
LABEL: -1
--
COMPOUND: CCNC(=O)c1noc(-c2cc(C(C)C)c(O)cc2O)c1-c1ccc(CN2CCOCC2)cc1 [Luminespib] + C[C@]1(O)C[C@@H](c2nc(-c3ccc4ccc(-c5ccccc5)nc4c3)c3c(N)nccn32)C1 [Linsitinib] (partner 1 µM)
LABEL: 1
--
COMPOUND: CCNC(=O)c1noc(-c2cc(C(C)C)c(O)cc2O)c1-c1ccc(CN2CCOCC2)cc1 [Luminespib] + COc1cccc2cc(-c3nc([C@H]4CC[C@H](C(=O)O)CC4)n4ncnc(N)c34)[nH]c12 [OSI-027] (partner 0.5 µM)
LABEL: 1
--
COMPOUND: CCNC(=O)c1noc(-c2cc(C(C)C)c(O)cc2O)c1-c1ccc(CN2CCOCC2)cc1 [Luminespib] + CS(=O)(=O)CCNCc1ccc(-c2ccc3ncnc(Nc4ccc(OCc5cccc(F)c5)c(Cl)c4)c3c2)o1 [Lapatinib] (partner 2 µM)
LABEL: 1
--
COMPOUND: CCNC(=O)c1noc(-c2cc(C(C)C)c(O)cc2O)c1-c1ccc(CN2CCOCC2)cc1 [Luminespib] + Nc1nc2[nH]cc(CCc3ccc(C(=O)N[C@@H](CCC(=O)O)C(=O)O)cc3)c2c(=O)[nH]1 [Pemetrexed] (partner 0.2 µM)
LABEL: 1
--
COMPOUND: Cc1csc(=NC2CCCCC2)n1/N=C/c1ccc(O)c(O)c1O [MIM1] + CC(C)C[C@H](NC(=O)[C@H](Cc1ccccc1)NC(=O)c1cnccn1)B(O)O [Bortezomib] (partner 0.002 µM)
LABEL: -1
--
COMPOUND: Cc1csc(=NC2CCCCC2)n1/N=C/c1ccc(O)c(O)c1O [MIM1] + C[C@@H](Oc1cc(-c2cnn(C3CCNCC3)c2)cnc1N)c1c(Cl)ccc(F)c1Cl [Crizotinib] (partner 1 µM)
LABEL: -1
--
COMPOUND: CN1CCN(CCOc2cc(OC3CCOCC3)c3c(Nc4c(Cl)ccc5c4OCO5)ncnc3c2)CC1 [Saracatinib] + CCNC(=O)c1noc(-c2cc(C(C)C)c(O)cc2O)c1-c1ccc(CN2CCOCC2)cc1 [Luminespib] (partner 0.01 µM)
LABEL: -1
--
COMPOUND: Cc1csc(=NC2CCCCC2)n1/N=C/c1ccc(O)c(O)c1O [MIM1] + Cc1cc(Nc2cc(N3CCN(C)CC3)nc(Sc3ccc(NC(=O)C4CC4)cc3)n2)n[nH]1 [Tozasertib] (partner 0.1 µM)
LABEL: 1
